Reference for the values: PubChem BioAssay (NCI)

# measurement.notes: NCI Yeast Anticancer Drug Screen. Data for the rad50EPP+ strain (AID 151);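 note: 0% = growth of vehicle-treated control cultures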
# measurement.conditions: S. cerevisiae rad50 mutant strain, at 11.0 µM, active compounds read high
The panel holds about 79,000 compounds, 15% with a hit somewhere; the sample as a whole holds those more often.
assay.endpoint: growth inhibition (%)
Numbers only, in %.

// worked examples, growth inhibition included
compound="O=S(=O)(O)/C(=C\\c1ccccc1)c1ccccc1 (tested in a mixture with another compound)" quantitative_readout=-3
compound="CCOC(=O)C1=C(C(=O)OCC)C2(c3ccccc3)N(O1)c1ccccc1C2(C)C (configuration not stated)" quantitative_readout=-5
compound=O=c1oc2ccccc2c(O)c1C(c1ccc2c(c1)Cc1ccccc1-2)c1c(O)c2ccccc2oc1=O quantitative_readout=46
compound=CCCCCNC(=O)c1c(O)[nH]c(=S)[nH]c1=O quantitative_readout=-16
compound=Nc1nc(N)c(-c2ccc(Cl)c(Cl)c2)c(CP(Cl)(Cl)(Cl)Br)n1 quantitative_readout=20
compound="COC(=O)C1c2cc3c(c(O)c2C(O)CC1(C)O)C(=O)c1c(O)cc2c(c1C3=O)OC1OC2(C)C(O)C(N(C)C)C1O (configuration not stated)" quantitative_readout=39

Here is the next item to consider.
// lookup growth inhibition for CCCCN(CCCC)CC(C(C)=O)C(c1ccccc1)c1c(O)c2ccccc2oc1=O (configuration not stated) -6

====

# measurement.notes: NCI Yeast Anticancer Drug Screen. Data for the cln2 rad14 strain (AID 165);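 note: 0% = growth equal to vehicle treated cultures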
# measurement.conditions: S. cerevisiae cln2 rad14 strain, at 50.0 µM (retest, dose inferred, filed as 5.0), active compounds read high
About 79,000 compounds went through this panel and 15% of them were active in at least one assay; those are over-represented in the sample as a whole.
assay.endpoint: growth inhibition (%)
One number for each entry, in %.

// worked examples, growth inhibition included
compound="CC(=O)C(CN(C)C)C(c1ccccc1)c1c(O)c2ccccc2oc1=O (stereo not drawn)" quantitative_readout=-4
compound="CC1C(=O)OCC1(C)O (stereo not drawn)" quantitative_readout=0

Here is the next item to consider.
// lookup growth inhibition for CC(=O)[O-].[Zn].c1ccc(/C(=N\Nc2ccccn2)c2ccccn2)cc1 78

====

Would you kindly list growth inhibition for each of these compounds?
# measurement.notes: NCI Yeast Anticancer Drug Screen. Data for the sgs1 mgt1 strain (AID 161);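 note: 0% = growth of cultures given vehicle only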
# measurement.conditions: S. cerevisiae sgs1 mgt1 strain, at 50.0 µM (retest, dose inferred, filed as 5.0), active compounds read high
About 79,000 compounds went through this panel and 15% of them were active in at least one assay; those are over-represented in the sample as a whole. Calls of active or inactive are those of the source. No stated cut-off is given here; in the data, active means growth inhibition above about 70%; inactive means the rest.

compound=Cc1cccc2cc3ccccc3cc12 result="99% (active)"
compound=CCOCCOC(=O)Cc1ccccc1 result="6% (inactive)"

Here is the next item to consider.
// lookup growth inhibition for COC(=O)C1c2cc3c(c(O)c2C(O)CC1(C)O)C(=O)c1c(O)cc2c(c1C3=O)OC1OC2(C)C(O)C(N(C)C)C1O (stereo not drawn) 15% (inactive)

====

# measurement.notes: NCI Yeast Anticancer Drug Screen. Data for the rad18 strain (AID 177)
# measurement.conditions: S. cerevisiae rad18 mutant growth inhibition; at 1.2 µM; active compounds read high
The panel holds about 79,000 compounds, 15% with a hit somewhere; the sample as a whole holds those more often. The source made the active and inactive calls. No stated cut-off is given here; in the data, active means growth inhibition above about 70%; inactive means the rest.
assay.endpoint: growth inhibition

Please go through the list and note growth inhibition for each compound.
1. C=CC[N+]12CN3CN(CN(C3)C1)C2
2. CCOC(=O)C1C2c3ccccc3C(c3ccccc32)C1C(=O)OCC (centres undefined)
3. C/C(=N\NC(N)=O)C(CN1CCOCC1)C(c1ccccc1)c1c(O)c2ccccc2oc1=O (centres undefined)

["18% (inactive)", "1% (inactive)", "2% (inactive)"]

Please go through the list and note growth inhibition for each compound.
1. COC(=O)C1=C(C(=O)OC)C2OC1c1cc3ccccc3cc12
2. CCCCCNC(=O)c1c(O)[nH]c(=S)[nH]c1=O
3. Nc1ccc(Cl)cc1C(=O)c1ccccc1

1: 50% (inactive); 2: -12% (inactive); 3: -12% (inactive)

Please go through the list and note growth inhibition for each compound.
1. CCCCCCCCCC[Se]C#N
2. COc1cccc2c1C(=O)c1c(O)c3c(c(O)c1C2=O)C[C@@](O)(/C(C)=N\O)C[C@@H]3OC1CC(N)C(O)C(C)O1 (some centres undefined)
3. Oc1c(Br)cc(Br)cc1Br
4. CN(C)CCSC1=Nc2ccc(Cl)cc2C(c2ccccc2Cl)=NC1
5. NCCc1ccc(OCc2ccccc2)c(OCc2ccccc2)c1

1: 4% (inactive); 2: 3% (inactive); 3: 7% (inactive); 4: -2% (inactive); 5: 2% (inactive)

Please go through the list and note growth inhibition for each compound.
1. Oc1cccc2nc3ccccc3nc12
2. O=c1c2ccccc2[se]n1-c1cccnc1
3. O=c1oc2ccccc2c(O)c1C(c1ccc2ccccc2c1)c1c(O)c2ccccc2oc1=O
4. CCCCN(CCCC)CC(C(C)=O)C(c1ccccc1)c1c(O)c2ccccc2oc1=O (centres undefined)
5. C[N+]1(CCCl)CC[N+](C)(CCCl)CC1 (centres undefined)
6. COC(=O)c1c(C)ccc2c(O)c3c(cc12)C(=O)c1c2c(cc(O)c1C3=O)C1(C)OC(C)(O2)C(O)C(N(C)C)C1O (centres undefined)
7. CC(=O)O/C(=C1\C[C@H]2[C@@H]3CC=C4C[C@@H](OC(C)=O)CC[C@]4(C)[C@H]3CC[C@]2(C)C1=O)C(F)(F)F

1: -29% (inactive); 2: 12% (inactive); 3: 10% (inactive); 4: -3% (inactive); 5: -2% (inactive); 6: 1% (inactive); 7: -4% (inactive)

====

# measurement.notes: NCI Yeast Anticancer Drug Screen. Data for the mec2-1 strain (AID 157)
# measurement.conditions: S. cerevisiae mec2-1 strain, at 5.0 µM (retest, dose inferred, filed as 0.5), active compounds read high
About 79,000 compounds went through this panel and 15% of them were active in at least one assay; those are over-represented in the sample as a whole.
assay.endpoint: growth inhibition (%)
One number for each entry, in %.

// worked examples, growth inhibition included
compound="CC12CCC3C(CCC4CC(N5CCCCC5)=CCC43C)C1CCC2O (stereo not drawn)" assay_endpoint="growth inhibition" quantitative_readout=-12
compound=CCOP(=O)(OCC)/C(C#N)=C/c1cccc(C)c1 assay_endpoint="growth inhibition" quantitative_readout=-14
compound="CCC[CH2][Sn]1([CH2]CCC)[O]C(c2ccccn2)S(=O)(=O)[O]1 (stereo not drawn)" assay_endpoint="growth inhibition" quantitative_readout=12
compound=CCC[CH2][Sn]([Cl])([Cl])[CH2]CCC assay_endpoint="growth inhibition" quantitative_readout=98
compound="C/C=C(\\C)C(=O)OC1C(C)=C2C(C1OC(=O)CCCCC)C(C)(OC(C)=O)CC(OC(=O)CCC)C1(O)C2OC(=O)C1(C)O (stereo not drawn)" assay_endpoint="growth inhibition" quantitative_readout=15

Please go through the list and note growth inhibition for each compound.
1. CCC[CH2][Sn][Cl]
2. CCCCS.[Hg]
3. CCC1(O)C(=O)OCc2c1cc1n(c2=O)Cc2cc3ccccc3nc2-1 (stereo not drawn)
4. CC(=O)OCC1OC([S-])C(OC(C)=O)C(OC(C)=O)C1OC(C)=O.CC[PH+](CC)CC.CC[PH+](CC)CC.[Au].[Au] (stereo not drawn)

100
99
21
99

====

Would you kindly list growth inhibition for each of these compounds?
# measurement.notes: NCI Yeast Anticancer Drug Screen. Data for the rad14 strain (AID 159);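 note: 0% = growth of vehicle-treated control cultures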
# measurement.conditions: S. cerevisiae rad14 strain growth inhibition; at 3.7 µM; active compounds read high
Compounds without any hit were thinned out: in the full panel of roughly 79,000, 15% have a hit. Active and inactive are the calls of the source. No stated cut-off is given here; in the data, active means growth inhibition above about 70%; inactive means the rest.

Please go through the list and note growth inhibition for each compound.
1. Cc1c2ccccc2cc2ccccc12
2. S=C1NC2(CCCCC2)NC12CCCCC2
3. c1ccc2cc3n[se]nc3cc2c1
4. [O-][n+]1c2cccc(O)c2[n+]([O-])c2cccc(O)c21

1. 21% (inactive)
2. -7% (inactive)
3. 4% (inactive)
4. 23% (inactive)

// lookup growth inhibition for Oc1cccc2cccnc12 85% (active)

====

# measurement.notes: NCI Yeast Anticancer Drug Screen. Data for the bub3 strain (AID 167)
# measurement.conditions: S. cerevisiae bub3 mutant strain, at 50.0 µM (retest, dose inferred, filed as 5.0)
The panel holds about 79,000 compounds, 15% with a hit somewhere; the sample as a whole holds those more often. Calls of active or inactive are those of the source. Cut-off read from the data, not from the text of the source: active = growth inhibition above about 70%; inactive = the rest.
Allowed answers: active, inactive

compound=[Cl][Hg][Cl] class_label=active
compound=N#C[S-].[Nd+3].c1ccc(-c2ccccn2)nc1.c1ccc(-c2ccccn2)nc1.c1ccc(-c2ccccn2)nc1 class_label=active
compound="COC1=[C]([Hg][Br])C(OC)OC1OC (centres undefined)" class_label=active

Could you please tell me the result logged for C1CC[N-]CC1.CC(=N\O)/C(C)=N/O.CC(=N\O)/C(C)=N/O.OC1[CH-]CCCC1.[Co+2] in this assay? inactive

Could you please tell me the result logged for CC[C@]1(O)CC(OC2CC(N(C)C)C(O)C(C)O2)c2c(cc3c(c2O)C(=O)c2c(O)cccc2C3=O)[C@@H]1C(=O)OC (some centres undefined) in this assay? active

Could you please tell me the result logged for N#Cc1ccc(N=Cc2c([O-])ccc3ccccc23)cc1.[C-]#[O+].[C-]#[O+].[Ir] in this assay? inactive

Could you please tell me the result logged for N#C[S-].[Nd+3].c1cnc2c(c1)ccc1cccnc12.c1cnc2c(c1)ccc1cccnc12.c1cnc2c(c1)ccc1cccnc12 in this assay? active

Could you please tell me the result logged for CC1CCC2(NC1)OC1CC3C4CC=C5CC(O)CCC5(C)C4CCC3(C)C1C2C (centres undefined) in this assay? active

Could you please tell me the result logged for Cc1cc(N(C)C)c2ccccc2[n+]1CCCCCCCCCC[n+]1c(C)cc(N(C)C)c2ccccc21 in this assay? active
